The following binders are shown together with reported Anti-CD28 Fab signal in the presence of CD28 values.
- TEST_SYSTEM: Anti-CD28 Fab (SEQ ID NOs: 696, 697)
- Sequence (VH, as listed by the source, chain 1 of 2): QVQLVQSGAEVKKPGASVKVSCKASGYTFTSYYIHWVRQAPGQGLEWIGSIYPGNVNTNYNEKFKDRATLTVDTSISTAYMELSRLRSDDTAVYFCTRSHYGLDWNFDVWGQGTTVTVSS
- Sequence (VL, as listed by the source, chain 2 of 2): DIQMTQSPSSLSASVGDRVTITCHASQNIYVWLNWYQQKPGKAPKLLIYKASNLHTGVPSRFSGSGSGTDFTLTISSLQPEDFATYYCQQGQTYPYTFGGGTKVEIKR
- MEASUREMENT_NOTES: phage binding ELISA; Fab-coated wells pre-incubated with saturating CD28 antigen as competitor, anti-M13 HRP detection
Just the number, please, no unit attached.

// worked examples, Anti-CD28 Fab signal in the presence of CD28 included
LCAAGFMYEWPLCF (also called Peptide-92 library clone) [Phage-1590]	0.06
SCSAGASLQLSQCF (also called Peptide-92 library clone) [Phage-1576]	0.05
RCAAGFHYSWPNCF (also called Peptide-92 library clone) [Phage-1581]	0.06
MCAAGAAWAWPLCL (also called Peptide-92 library clone) [Phage-1588]	0.07
TCSAGATYSWPACL (also called Peptide-92 library clone) [Phage-1584]	0.06
LCSAGFLFQWSTCL (also called Peptide-92 library clone) [Phage-1580]	0.06

The binder identified as TCAAGASYPWPLCV (also called Peptide-92 library clone) [Phage-1589] registered its Anti-CD28 Fab signal in the presence of CD28 at 0.06

The binder identified as PCAAGAMWPWPVCL (also called Peptide-92 library clone) [Phage-1583] registered its Anti-CD28 Fab signal in the presence of CD28 at 0.06

The binder identified as RCSFRFITLAEACV (also called Peptide-92 library clone) [Phage-1577] registered its Anti-CD28 Fab signal in the presence of CD28 at 0.08

The binder identified as LCAAGAHYSWPACF (also called Peptide-92 library clone) [Phage-1586] registered its Anti-CD28 Fab signal in the presence of CD28 at 0.09

The binder identified as PCSAGVTYAWLYCV (also called Peptide-92 library clone) [Phage-1587] registered its Anti-CD28 Fab signal in the presence of CD28 at 0.06

The binder identified as GCAAGASYPWPACL (also called Peptide-92 library clone) [Phage-1582] registered its Anti-CD28 Fab signal in the presence of CD28 at 0.06

The binder identified as TCSAGAHYPWPICL (also called Peptide-92 library clone) [Phage-1578] registered its Anti-CD28 Fab signal in the presence of CD28 at 0.08

The binder identified as TCAAGAQFAWPLCL (also called Peptide-92 library clone) [Phage-1579] registered its Anti-CD28 Fab signal in the presence of CD28 at 0.07

The binder identified as TCAAGASWNWPACE (Read from the row with '-' = Peptide-92 residue: TCAAGASWNWPACE; also called Peptide-92 library clone) [Phage-1585] registered its Anti-CD28 Fab signal in the presence of CD28 at 0.07
